test system: UO-31; assay: NCI tumour cell line growth inhibition, 48 h
Activity calls are given as the source filed them. No stated cut-off is given here; in the data, active = GI50 up to about 1.1 µM and inactive = higher.
// one of true (active), false (inactive), no free text

Examples from the recorded data:
Compound	Category
C=C1CN=C(Nc2ccc(F)cc2F)S1	false
NC(CCC(=O)Nc1ccc(O)cc1)C(=O)O (stereo not drawn)	false
CN1CCN(C)C12C=c1ccccc1=CC21CC1	false
Fc1ccc(C2SCc3nc4ccccc4n32)cc1 (stereo not drawn)	false
Cn1nc(-c2ccccc2)c2c(/C=C/c3ccccc3)onc2c1=O	false

// query Tell me the recorded outcome of this test for `CCOC(=O)c1cc(C#N)[nH]c1-c1ccsc1` .
// result true

// query Kindly provide the recorded test outcome for the following compound: `COc1ccc(/C(=N/N=c2\[nH]c3ccccc3n2Cc2ccccc2)C(=O)O)cc1`
// result false

###

test system: NCI/ADR-RES; experiment: NCI tumour cell line growth inhibition, 48 h
Active and inactive are the calls of the source. Rule as the data show it: active = GI50 up to about 1.1 µM and inactive = higher.
Reported metric: GI50

These recorded examples may help you get a feel for the data.
Compound	Assay system	GI50
CCOC(=O)c1sc2nc(SC)nc3c2c1N=CN3c1ccccc1Cl	NCI/ADR-RES	> 100 µM (inactive)
Cn1c2c(c3ccccc31)CC1c3c(c4ccccc4n3C)CC21 (stereo not given)	NCI/ADR-RES	> 100 µM (inactive)
O=C(O)C1C2CC3C(OC(=O)C31)C2Br (stereo not given)	NCI/ADR-RES	> 100 µM (inactive)
CC1(C)CC2=C(Sc3ccccc3N2)C(=O)C1C(=O)C(=O)Nc1cc(Cl)ccc1Cl (stereo not given)	NCI/ADR-RES	63.2 µM (inactive)
Cn1c(=O)c2nc(CSCc3ccccc3)[nH]c2n(C)c1=O	NCI/ADR-RES	> 100 µM (inactive)
C=C1CC(OC(C)=O)/C=C(/C)CCC(C(C)(C)O)CC1O (stereo not given)	NCI/ADR-RES	> 100 µM (inactive)
COC(=O)C1=C(OC(=O)/C(=C/c2ccc(Cl)cc2Cl)c2ccc(Cl)cc2Cl)C(C(=O)OC)[C@@]2(O)[C@@H](C(=O)OC)[C@H](C)C[C@@H]1[C@@H]2C(=O)OC (stereo not given in full)	NCI/ADR-RES	> 100 µM (inactive)
CC(C)c1cc(CN(C)C)c(O)c(C(C)(C)C)c1	NCI/ADR-RES	65.3 µM (inactive)
NNc1nncc2[nH]cnc12	NCI/ADR-RES	> 100 µM (inactive)
C[C@H]1[C@H](C)CC[C@]2(C)CC[C@]3(C)C(=C[C@@H](O)[C@@H]4[C@@]5(C)[C@H](O)[C@@H](O)[C@H](O)C(C)(C)[C@@H]5CC[C@]43C)[C@H]12	NCI/ADR-RES	> 100 µM (inactive)

Measured GI50, `O=c1c2ccccc2sc2cccc(NCCCN3CCN(CCCNc4cccc5sc6ccccc6c(=O)c45)CC3)c12` : > 100 µM (inactive)

Form field GI50, entry CCOc1ccc2nc(NC(=O)C(=O)C(c3cnc4ccccc4n3)[N+](=O)[O-])sc2c1 (stereo not given) : > 100 µM (inactive)

Reported GI50 of `CCCCNC(=S)N/N=C/c1cccc(C)n1` : 29 µM (inactive)

compound `Cc1cccc2c1c(=O)c1c(O)cc(O)cc1n2C` , GI50 observed: > 100 µM (inactive)

// GI50 value for OCC1OC(n2cnc3c(/C=C(/O)c4ccccc4)ncnc32)C(O)C1O (stereo not given) : 2.11 µM (inactive)

###

GI50 reference
test system: A498; assay: NCI tumour cell line growth inhibition, 48 h
Calls of active or inactive are those of the source. Rule as the data show it: active = GI50 up to about 1.1 µM and inactive = higher.

Sample records with GI50:
Compound	Test value
COc1ccc2nc(NC(=O)C(=O)NNC(=O)c3ccncc3)sc2c1	> 100 µM (inactive)
CC1(C)O[C@@H](CP(c2ccccc2)c2ccccc2)[C@H](CP(c2ccccc2)c2ccccc2)O1	12.6 µM (inactive)
OC1CC2CCCN(CCc3c1[nH]c1ccccc31)C2 (stereo unspecified)	> 100 µM (inactive)
Cn1c(=O)c2nc(CSCc3ccccc3)[nH]c2n(C)c1=O	> 100 µM (inactive)
N#CC1=C(c2ccccc2)C(O)(c2ccccc2)NC1=O (stereo unspecified)	24.6 µM (inactive)
COc1ccc(/C=c2\sc3n(c2=O)C(N)=C(C#N)C(c2ccc(OC)cc2)C=3c2nc3ccccc3[nH]2)cc1 (stereo unspecified)	29.6 µM (inactive)
Cc1cc(C)c(C(=O)O)c(N)c1O	> 100 µM (inactive)
Cc1cc[n+]2c(c1)-c1cc(C)cc[n+]1CC2	> 100 µM (inactive)
Sc1ccc2ccccc2c1CNCc1ccccc1	16.3 µM (inactive)
C=C(c1ccccc1)c1ccccc1-c1cc(-c2ccccc2)cc(-c2ccccc2)n1	> 100 µM (inactive)

For CCOC(=O)CC1(c2cccc3ccccc23)OC(=O)c2ccccc21 (stereo unspecified) the compound record lists GI50 as 23.6 µM (inactive)

###

test system: NCI-H226; assay: NCI tumour cell line growth inhibition, 48 h
Calls of active or inactive are those of the source. No stated cut-off is given here; in the data, active = GI50 up to about 1.1 µM and inactive = higher.
GI50: recorded values

Compound	Test value
COc1ccc(/C=C(\C#N)c2nc3ccccc3c(=O)[nH]2)cc1	27 µM (inactive)
CCOCc1cc(=O)c2cc3c(cc2o1)OC(C)(C)CC3	> 100 µM (inactive)
COc1ccc(CNc2nc3ccccc3nc2C(=O)O)cc1	> 100 µM (inactive)
CCOC(=O)c1sc2nc(SC)nc3c2c1N=CN3c1ccccc1Cl	> 100 µM (inactive)
CC(C)=CC1C(COC(=O)c2ccccc2Cl)C1(C)C (stereo not given)	30.4 µM (inactive)
CCCCc1c2c(nc3c1CCc1cc4c(nc1-3)-c1nc3c(c(CCCC)c1CC4)CCC/C3=C\c1ccccc1)/C(=C/c1ccccc1)CCC2	> 100 µM (inactive)
O=C1NC(=O)C23C(=O)NC(=O)C12C1C=CC3CC1 (stereo not given)	> 10 µM (inactive)
CC1(C)N=C2C(=O)c3c([nH]c4ccccc34)[C@]3(C)CCC1CC23 (stereo not given in full)	> 6.25 µM (inactive)
O=C(NCCCCCN1CCC2(CCCCC2)CC1)C(C1CCCCC1)C1CCCCC1	3.67 µM (inactive)

GI50 reading for Cc1ccc2c(c1C)CC1(Cc3ccc(C)c(C)c3C1=O)C2=O (stereo not given) : 52.1 µM (inactive)

###

tested on: MDA-MB-435; test: NCI tumour cell line growth inhibition, 48 h
Activity calls are given as the source filed them. Rule as the data show it: active = GI50 up to about 1.1 µM and inactive = higher.
Reported metric: GI50

The cases that follow already have their GI50 on record.
Compound	Test value
O=c1oc2ccccc2cc1-c1nc2ccccc2s1	5.36 µM (inactive)
O=S1(=O)c2ccccc2NC(=S)CC1c1ccccc1 (centres undefined)	> 100 µM (inactive)
CC(=O)N1N=C(c2ccc3ccccc3c2O)CC1c1ccc(N(C)C)cc1 (centres undefined)	> 100 µM (inactive)

Consider CN(Cc1ccccc1)C(=S)S [SODIUM BENZYL(METHYL)CARBAMODITHIOATE] . Its measured GI50 is 43.2 µM (inactive)

Quick note, GI50 for `CC(=O)O[C@H]1CC[C@@]2(C)C(=CC[C@@H]3[C@@H]2CC[C@]2(C)c4nc(Cl)ccc4C[C@@H]32)C1` landed at 41.4 µM (inactive)

Given item `Cc1ccc2ccccc2c1CC1S(=O)(=O)OCCOS1(=O)=O` , the value recorded as its GI50 is 8.67 µM (inactive)

###

system: MCF7; assay: NCI tumour cell line growth inhibition, 48 h
The source made the active and inactive calls. Rule as the data show it: active = GI50 up to about 1.1 µM and inactive = higher.
Respond with a class label; see YES for active, NO for inactive

Worked set:
Molecule	Category
Cc1cc(S(=O)(=O)Nc2cc(N)n[nH]2)c(SCc2nc(N)nc(N(C)C)n2)cc1Cl	NO
CN(C)CCn1c(=O)c2ccc(NCCCN(C)CCCNc3ccc4c(=O)n(CCN(C)C)c(=O)n5c6ccc(O)cc6c(=O)c3c45)c3c(=O)c4cc(O)ccc4n(c1=O)c23	YES
Cc1cnc2c(c1)C(=O)C1=C(C2=O)C2OC(=O)CC2OC1(C)C (centres undefined)	YES
CC(C)C1=Cc2ccc3c(c2C(=O)C1=O)CCCC3	NO
O=C1c2cccc3cc([N+](=O)[O-])cc(c23)C(=O)N1O	NO

// query Record lookup: outcome of this test for OCC1OC(n2cnc3c(/C=C(/O)c4ccccc4)ncnc32)C(O)C1O (centres undefined) ?
// result NO

// query Lab log entry: `CN(C)C(=S)/N=c1\ssc(=S)n1Cc1cccs1` — outcome as called in the assay?
// result NO

// query Recorded call for CC(C)c1ccc(/C=C2\CSCC3=C2N=C(S)NC3c2ccc(C(C)C)cc2)cc1 (centres undefined) ?
// result NO

// query Hi team, can someone confirm the assay call for `CC(C)=C1C(=O)C[C@]2(C)C[C@H]3O[C@]3(C)CC[C@@H]3O[C@@]3(C)CC[C@@H]12` ?
// result NO

// query # lookup: test call for `C=C1C(=O)O[C@H]2[C@@H](O)[C@H](C)CCC/C(C)=C/CC[C@@]3(C)O[C@@H]3C[C@@H]12`
// result NO
